target: Mitogen-activated protein kinase 8 (Homo sapiens); note: in the data inactive means no Kd found up to 30 µM
Sequence (P45983 whole entry): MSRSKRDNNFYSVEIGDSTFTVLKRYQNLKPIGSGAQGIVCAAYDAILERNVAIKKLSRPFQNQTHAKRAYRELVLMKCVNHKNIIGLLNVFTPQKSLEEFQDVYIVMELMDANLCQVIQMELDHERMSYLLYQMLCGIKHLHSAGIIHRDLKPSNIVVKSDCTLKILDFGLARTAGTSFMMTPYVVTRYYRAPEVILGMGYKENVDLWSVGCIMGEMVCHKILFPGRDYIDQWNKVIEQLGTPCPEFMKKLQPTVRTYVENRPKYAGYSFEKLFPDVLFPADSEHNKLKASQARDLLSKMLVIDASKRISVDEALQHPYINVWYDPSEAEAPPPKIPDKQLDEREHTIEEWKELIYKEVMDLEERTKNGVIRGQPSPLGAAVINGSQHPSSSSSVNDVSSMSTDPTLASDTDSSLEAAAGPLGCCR
Active and inactive are the calls of the source.
Outcome field: choose from active, inactive

Completed entries (count: 3):
| compound | cat |
| --- | --- |
| Cc1cc(Nc2ncnc3ccc(NC4=NC(C)(C)CO4)cc23)ccc1Oc1ccn2ncnc2c1 [TUCATINIB] | inactive |
| COCC(=O)NC/C=C/c1ccc2ncnc(Nc3ccc(Oc4ccc(C)nc4)c(C)c3)c2c1 [CP-724714] | inactive |
| FC(F)(F)c1ccc(/C=C/c2nc(COc3ccc(CCCCn4ccnn4)cc3)co2)cc1 [MUBRITINIB] | inactive |

Ask: Recorded call for COCc1c(-c2ccc(NC(=O)Nc3cc(C(F)(F)F)ccc3F)c(F)c2)c2c(N)ncnn2c1CN1CCOCC1 ?
Result: inactive

Ask: Now give it for CO[C@H]1C[C@@H]2CC[C@@H](C)[C@@](O)(O2)C(=O)C(=O)N2CCCC[C@H]2C(=O)O[C@H]([C@H](C)C[C@@H]2CC[C@@H](O)[C@H](OC)C2)CC(=O)[C@H](C)/C=C(\C)[C@@H](O)[C@@H](OC)C(=O)[C@H](C)C[C@H](C)/C=C/C=C/C=C/1C [SIROLIMUS] too.
Result: inactive

Ask: Now give it for C[C@@H](Oc1cc(C(=O)Nc2ccc(C(=O)N3CCN(C)CC3)cc2)nnc1N)c1c(Cl)ccc(F)c1Cl too.
Result: inactive

Ask: Now give it for O=C(Nc1c[nH]nc1-c1nc2cc(CN3CCOCC3)ccc2[nH]1)NC1CC1 [AT-9283] too.
Result: active

====

target: Serine/threonine-protein kinase TAO2 (Homo sapiens, UniProt Q9UL54); note: in the data inactive means no Kd found up to 30 µM
Sequence (Q9UL54 whole entry): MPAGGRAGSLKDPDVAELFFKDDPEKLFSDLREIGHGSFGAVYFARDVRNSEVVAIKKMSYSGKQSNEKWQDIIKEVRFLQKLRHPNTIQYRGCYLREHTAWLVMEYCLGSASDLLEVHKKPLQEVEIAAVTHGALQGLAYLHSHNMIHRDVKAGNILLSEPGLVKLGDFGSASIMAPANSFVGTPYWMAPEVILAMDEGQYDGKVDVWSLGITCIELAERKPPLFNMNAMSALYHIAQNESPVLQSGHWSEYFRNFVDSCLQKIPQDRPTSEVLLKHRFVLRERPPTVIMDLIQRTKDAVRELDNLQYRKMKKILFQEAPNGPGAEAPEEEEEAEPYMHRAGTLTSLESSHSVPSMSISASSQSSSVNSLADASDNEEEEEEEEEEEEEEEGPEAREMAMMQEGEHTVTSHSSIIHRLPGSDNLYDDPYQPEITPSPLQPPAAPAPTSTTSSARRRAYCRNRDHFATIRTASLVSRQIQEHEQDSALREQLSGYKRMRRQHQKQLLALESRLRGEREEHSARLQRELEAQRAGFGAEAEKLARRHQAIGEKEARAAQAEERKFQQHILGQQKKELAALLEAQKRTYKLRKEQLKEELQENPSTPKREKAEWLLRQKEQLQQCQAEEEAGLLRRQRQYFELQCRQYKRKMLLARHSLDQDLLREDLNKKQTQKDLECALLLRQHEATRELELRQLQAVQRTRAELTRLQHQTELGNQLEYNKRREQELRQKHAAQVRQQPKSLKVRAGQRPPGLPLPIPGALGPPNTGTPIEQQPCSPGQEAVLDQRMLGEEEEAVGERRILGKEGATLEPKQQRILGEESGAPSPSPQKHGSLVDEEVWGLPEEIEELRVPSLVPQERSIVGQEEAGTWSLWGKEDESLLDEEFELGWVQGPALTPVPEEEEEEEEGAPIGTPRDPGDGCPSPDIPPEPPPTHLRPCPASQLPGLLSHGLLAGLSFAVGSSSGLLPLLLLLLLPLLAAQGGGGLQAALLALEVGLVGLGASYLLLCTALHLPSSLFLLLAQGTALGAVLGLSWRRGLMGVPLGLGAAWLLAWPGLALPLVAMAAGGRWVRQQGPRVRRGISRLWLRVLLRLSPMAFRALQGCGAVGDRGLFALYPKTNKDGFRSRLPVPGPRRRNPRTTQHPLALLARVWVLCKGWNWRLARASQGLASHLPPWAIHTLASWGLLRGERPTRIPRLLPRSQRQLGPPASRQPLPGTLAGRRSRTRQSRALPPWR
Active and inactive are the calls of the source.
Outcome field: choose from active, inactive

Ask: Recorded call for CO[C@H]1C[C@@H]2CC[C@@H](C)[C@@](O)(O2)C(=O)C(=O)N2CCCC[C@H]2C(=O)O[C@H]([C@H](C)C[C@@H]2CC[C@@H](O)[C@H](OC)C2)CC(=O)[C@H](C)/C=C(\C)[C@@H](O)[C@@H](OC)C(=O)[C@H](C)C[C@H](C)/C=C/C=C/C=C/1C ?
Result: inactive

Ask: Now give it for COc1cc2ncnc(Oc3cccc(NC(=O)Nc4cc(C(C)(C)C(F)(F)F)on4)c3)c2cc1OC too.
Result: inactive

Ask: Now give it for COc1ncc(-c2ccc3nccc(-c4ccnnc4)c3c2)cc1NS(=O)(=O)c1ccc(F)cc1F too.
Result: inactive

Ask: Now give it for CO[C@H]1C[C@@H]2CC[C@@H](C)[C@@](O)(O2)C(=O)C(=O)N2CCCC[C@H]2C(=O)O[C@H]([C@H](C)C[C@@H]2CC[C@@H](OP(C)(C)=O)[C@H](OC)C2)CC(=O)[C@H](C)/C=C(\C)[C@@H](O)[C@@H](OC)C(=O)[C@H](C)C[C@H](C)/C=C/C=C/C=C/1C too.
Result: inactive

Ask: Now give it for CN(C[C@@H]1COCCO1)S(=O)(=O)Nc1ccc2ccc3ncc(-c4cnn(C)c4)cc3c(=O)c2c1 too.
Result: inactive

Ask: Now give it for Cc1cc(Nc2ncnc3ccc(NC4=NC(C)(C)CO4)cc23)ccc1Oc1ccn2ncnc2c1 too.
Result: inactive

Ask: Now give it for CNC(=O)c1cc(Oc2ccc(NC(=O)Nc3cc(C(C)(C)C)nn3-c3ccc4ncccc4c3)c(F)c2)ccn1 too.
Result: inactive

Ask: Now give it for O=C1NC(=O)[C@@H](c2cn3c4c(cccc24)CCC3)[C@@H]1c1c[nH]c2ccccc12 [TIVANTINIB] too.
Result: inactive

Ask: Now give it for COCc1c(-c2ccc(NC(=O)Nc3cc(C(F)(F)F)ccc3F)c(F)c2)c2c(N)ncnn2c1CN1CCOCC1 too.
Result: inactive
